# maps each entry to its log10(TGI)
test system: HS 578T breast; assay: NCI tumour cell line growth inhibition, 48 h
Recorded TGI (log10, µM)

Sample records with log10(TGI):
Compound	Observed Result
O=c1[nH]c(Nc2cc(Cl)cc(Cl)c2)nc2nc[nH]c12	1.84
CCCCCCCCCc1cccc(N2C(N)=NC(N)=NC2(C)C)c1	0.81
NCCCNC1(c2cc3ccccc3s2)CCCCC1	1.48
CCCCCCCCCCCCOP(=O)(O)OCC(N)C(=O)O (configuration not stated)	1.52
COc1ccc2c(c1)C(=O)c1c-2c(Nc2ccc(Cl)cc2)nc2ccccc12	0.95

Prompt line: Field request: log10(TGI) | item: O=C1CCCC/C1=C\c1ccc(Br)cc1
Response line: 1.72

Prompt line: Field request: log10(TGI) | item: CSc1c(C#N)c(N)nc2c(N=Nc3ccc(Cl)cc3)c(N)nn12
Response line: 0.54

Prompt line: Field request: log10(TGI) | item: COC(=O)C1=C(O)C(C(=O)OC)[C@]2(O)[C@H](C(=O)OC)[C@H]1C[C@@H](c1c(Cl)cccc1Cl)[C@H]2C(=O)OC (some centres not stated)
Response line: 1.44

Prompt line: Field request: log10(TGI) | item: CCOC(=O)C1OC(C2(C)OC3(OC4(C=CC3O)OC(C(C)C(=O)C(C)C(O)C(C)CC(C)c3c(Cl)cc(C)c(O)c3C(=O)O)C(C)CC4C)C(C)C2OC)CC1O (configuration not stated)
Response line: 1.07
